Tested on: TK-10
Experiment: NCI tumour cell line growth inhibition, 48 h
Calls of active or inactive are those of the source. Rule as the data show it: active = GI50 up to about 1.1 µM and inactive = higher.
reported.endpoint: GI50

INSERT INTO assay_data (compound, recorded_result) VALUES
  ('COc1ccccc1CCN1CCN(CCCc2ccccc2)CC1', '75.5 µM (inactive)'),
  ('c1ccc(B2OCC(C3OB(c4ccccc4)OC4COB(c5ccccc5)OC43)O2)cc1 (stereo not drawn)', '> 100 µM (inactive)'),
  ('Nc1cc2[nH]cnc2c(=O)[nH]1 [DEZAGUANINE]', '13.9 µM (inactive)');

----------
Reported values of GI50 for individual entries
Tested on: OVCAR-8
Experiment: NCI tumour cell line growth inhibition, 48 h
The source made the active and inactive calls. Rule as the data show it: active = GI50 up to about 1.1 µM and inactive = higher.
reported.endpoint: GI50

INSERT INTO results (compound, target_or_test_system, reported_endpoint, recorded_result) VALUES
  ('CO/C(=N\N=C\c1ccc(OC)c(OC)c1)c1ccncc1', 'OVCAR-8', 'GI50', '> 10 µM (inactive)'),
  ('Brc1ccc2c(c1)-c1nc3nc4c(cc3cc1CC2)CCc1ccc(Br)cc1-4', 'OVCAR-8', 'GI50', '> 100 µM (inactive)'),
  ('O=C(O)CCCn1nnc2c(=O)[nH][nH]c(=O)c21', 'OVCAR-8', 'GI50', '> 100 µM (inactive)'),
  ('Brc1cccc(Nc2ncnc3sc4c(c23)CCC(Nc2cccc(Br)c2)C4)c1 (stereo unspecified)', 'OVCAR-8', 'GI50', '> 100 µM (inactive)'),
  ('NCCOc1ccccn1', 'OVCAR-8', 'GI50', '> 100 µM (inactive)'),
  ('COc1cc(OC)c2nc(C)c3c(c2c1)NCC3', 'OVCAR-8', 'GI50', '4.51 µM (inactive)');

----------
System: XF498
Test: NCI tumour cell line growth inhibition, 48 h
The source made the active and inactive calls. Rule as the data show it: active = GI50 up to about 1.1 µM and inactive = higher.
reported.endpoint: GI50

INSERT INTO results (molecule, reported_endpoint, recorded_result) VALUES
  ('N/N=C(/Cc1nc2ccc(C(=O)c3ccccc3)cc2nc1O)C(=O)Nc1ccc([N+](=O)[O-])cc1[N+](=O)[O-]', 'GI50', '8.07 µM (inactive)'),
  ('CC(=O)Nc1ccc(C(=O)N2N=C(C)/C(=C/c3ccccc3O)C2=O)cc1', 'GI50', '> 100 µM (inactive)'),
  ('COc1cc2c(c(OC)c1OC)[C@@H]1CCCCC[C@@H]1CCC2=O', 'GI50', '> 94 µM (inactive)'),
  ('CC1(c2cccc3ccccc23)OC(=O)c2ccccc21 (stereo not given)', 'GI50', '18.2 µM (inactive)'),
  ('CCc1nc(N)nc(C(=O)NCCNC(=O)c2nc(N)nc(CC)c2C)c1C', 'GI50', '> 100 µM (inactive)');

----------
Test system: UO-31
Test: NCI tumour cell line growth inhibition, 48 h
Activity calls are given as the source filed them. No stated cut-off is given here; in the data, active = GI50 up to about 1.1 µM and inactive = higher.
Possible outcomes: active, inactive

INSERT INTO measurements (compound, class_label) VALUES
  ('O=C(CCc1cc(O)cc(O)c1)NCCc1cc(O)cc(OCc2ccccc2)c1', 'inactive'),
  ('CC(=O)Nc1ccc2c3c(cc(O)c2c1)N(C(=O)CCCC(=O)Nc1ccc2c4c(cc(O)c2c1)N(C(=O)OC(C)(C)C)CC4CCl)CC3CCl (stereo not given)', 'inactive'),
  ('COc1ccc(CC2C3=C(CCN2C(=O)C2CCC2)CC2(CC3)OCCO2)cc1O (stereo not given)', 'active'),
  ('CCCc1nc(N)nc(C(=O)Nc2cccc(C(F)(F)F)c2)c1CC', 'inactive'),
  ('CO/C(=N\N=C\c1ccc(OC)c(OC)c1)c1ccncc1', 'inactive');
